System: Tyk2 kinase activity on STAT4 in NK92 cells (Homo sapiens)
Sequence (P29597 whole entry): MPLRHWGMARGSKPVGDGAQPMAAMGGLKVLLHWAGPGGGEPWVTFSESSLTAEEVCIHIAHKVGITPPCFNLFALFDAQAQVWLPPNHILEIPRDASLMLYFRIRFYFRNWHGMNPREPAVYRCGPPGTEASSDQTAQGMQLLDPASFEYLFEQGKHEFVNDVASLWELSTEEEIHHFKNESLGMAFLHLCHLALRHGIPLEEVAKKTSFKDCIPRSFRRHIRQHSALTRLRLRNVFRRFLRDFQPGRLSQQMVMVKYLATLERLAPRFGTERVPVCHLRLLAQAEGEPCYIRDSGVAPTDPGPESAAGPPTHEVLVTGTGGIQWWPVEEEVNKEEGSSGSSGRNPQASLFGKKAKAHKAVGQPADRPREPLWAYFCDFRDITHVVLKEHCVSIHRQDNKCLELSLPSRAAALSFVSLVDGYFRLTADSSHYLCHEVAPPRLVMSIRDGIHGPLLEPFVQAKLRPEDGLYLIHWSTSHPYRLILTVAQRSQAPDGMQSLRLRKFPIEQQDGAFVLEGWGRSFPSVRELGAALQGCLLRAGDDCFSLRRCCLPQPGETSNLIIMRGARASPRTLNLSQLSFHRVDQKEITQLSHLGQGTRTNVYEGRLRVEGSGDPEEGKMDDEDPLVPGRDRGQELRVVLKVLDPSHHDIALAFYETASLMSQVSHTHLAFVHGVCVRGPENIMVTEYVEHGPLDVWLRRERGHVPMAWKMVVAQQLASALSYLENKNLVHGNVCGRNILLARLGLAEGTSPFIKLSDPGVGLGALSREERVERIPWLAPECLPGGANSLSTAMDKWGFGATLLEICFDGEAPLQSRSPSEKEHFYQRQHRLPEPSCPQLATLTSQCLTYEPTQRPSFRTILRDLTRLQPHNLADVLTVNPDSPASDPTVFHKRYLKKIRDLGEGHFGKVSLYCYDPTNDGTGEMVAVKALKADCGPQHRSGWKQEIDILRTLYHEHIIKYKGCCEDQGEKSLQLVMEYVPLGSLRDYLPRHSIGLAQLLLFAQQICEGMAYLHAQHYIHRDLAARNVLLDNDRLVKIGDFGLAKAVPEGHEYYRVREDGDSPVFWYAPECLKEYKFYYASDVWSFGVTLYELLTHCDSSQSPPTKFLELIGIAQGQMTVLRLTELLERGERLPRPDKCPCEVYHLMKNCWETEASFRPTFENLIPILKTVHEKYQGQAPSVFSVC
Protocol summary: pSTAT4 cell assay (MSD; NK92 cells, 30 ng/mL IL2 stimulation)
Condition description: 30 ng/mL IL2, 15 minutes
pIC50: −log10 of the molar value.
The reader will find reported pIC50 values listed item by item below.

Compound | Experimental value
C[C@@H]1CN(c2nc(-c3cnn([C@H]4CCOC4)c3)cn3ncc(F)c23)C(=O)[C@]1(C#N)C1CC1 | 7.00 to 7.30
C[C@@H]1CN(c2ccnn3cc(-c4cnn(S(C)(=O)=O)c4)cc23)C(=O)[C@]1(C#N)C1CC1 | < 7.00
C[C@@H]1CN(c2cc(-c3cnn(C(F)F)c3)cc3ncsc23)C(=O)[C@]1(C#N)C1CC1 | < 7.00

Request: Name the recorded pIC50 for C[C@@H]1CN(c2ccnn3cc(-c4cnn([C@H]5COCC(F)(F)C5)c4)cc23)C(=O)[C@]1(C#N)C1CC1 (single isomer, unassigned) .
Result: 7.00 to 7.30

The measurements presented in this section are drawn from patent US20260297085A1.
